- SYSTEM_UNDER_TEST: human IL-17A / human IL-17RA (Homo sapiens (Human))
- Sequence (Q16552 24-155): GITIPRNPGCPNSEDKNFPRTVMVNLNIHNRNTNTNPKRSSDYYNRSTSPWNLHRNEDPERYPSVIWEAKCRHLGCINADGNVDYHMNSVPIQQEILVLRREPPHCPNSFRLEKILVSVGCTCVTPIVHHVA
- MEASUREMENT_DESCRIPTION: Human IL-17A biochemical assay (HTRF, blocking of IL-17A binding to IL-17RA)
- CONDITION_LABEL: 0.4 nM IL-17A, 0.3 nM IL-17RA, max compound concentration 10 uM
MEASURE: log10 of IC50 (log10 of the value in nM)
For clarity, the numbers are log10 values of IC50 expressed in nM.

Check out these entries, answers already filled in.
COCC1(N2CC(C(F)(F)F)NC2=O)Cc2ccc(NC(=O)[C@@H](NC(=O)c3nonc3C)C(C3CC3)C3CC3)cc2C1 (stereo partly shown) [Example 225] | 3.10
Cc1nonc1C(=O)N[C@H](C(=O)Nc1ccc2c(c1)CC(C#N)(N1CC3(CC3)CNC1=O)C2)C1CCC(F)(F)CC1 (stereo partly shown) [Example 210] | 1.96
CNC(=O)C1(N2CC(C(C)C)NC2=O)Cc2cc3nc([C@@H](NC(=O)c4ccnn4C)C4CCCCC4)[nH]c3cc2C1 (stereo partly shown) [Example 28] | 2.60
Cc1nonc1C(=O)N[C@H](C(=O)Nc1ccc2c(c1)CC(C(=O)NC1CCC(F)(F)C1)(N1CC3(CC3)CNC1=O)C2)C1CCC(F)(F)CC1 (stereo partly shown) [Example 190] | 1.94

[in] Which value of log10 of IC50 has been reported for Cn1nccc1C(=O)N[C@H](C(=O)Nc1ccc2c(c1)CC(C(=O)Nc1cccc(F)c1)(N1CC3(CC3)CNC1=O)C2)C1CCCCC1 (stereo partly shown) [Example 200] in the records?
[out] 1.49

[in] // log10 of IC50 lookup, key: CNC(=O)C1(N2C[C@@H](C(C)C)NC2=O)Cc2ccc(NC(=O)[C@@H](NC(=O)c3ccccc3)C3CCCCC3)cc2C1 (stereo partly shown) [Example 54]
[out] 1.38

[in] Need log10 of IC50 of CNC(=O)C1(N2C[C@@H](C(C)C)NC2=O)Cc2ccc(NC(=O)C(NC(=O)c3ccnn3C)C3CCC(C)CC3)cc2C1 (stereo partly shown) [Example 89] , thanks.
[out] 1.26

[in] # get_value(readout='log10 of IC50', item= CC(C)n1nccc1C(=O)N[C@H](C(=O)Nc1ccc2c(c1)CC(N1C[C@@H](C(F)(F)F)NC1=O)C2)C(C1CC1)C1CC1 (stereo partly shown) [Example 177] )
[out] 1.73

[in] Which log10 of IC50 is reported for this compound? CNC(=O)C1(N2CC3(CC3)CNC2=O)Cc2ccc(NC(=O)[C@@H](NC(=O)c3ccnn3C)C(C3CC3)C3CC3)cc2C1 (stereo partly shown) [Example 114]
[out] 1.87

[in] What value of log10 of IC50 has been recorded for this entry: CNC(=O)C1(N2C[C@@H](Cc3ccccn3)NC2=O)Cc2ccc(NC(=O)[C@@H](NC(=O)c3ccnn3C)C3CCCCC3)cc2C1 (stereo partly shown) [Example 43]
[out] 3.16

[in] Record request: log10 of IC50 value, item CNC(=O)C1(N2CC(C)NC2=O)Cc2ccc(NC(=O)[C@@H](NC(=O)c3ccnn3C)C3CCCCC3)cc2C1 (stereo partly shown) [Example 1]
[out] 2.58

[in] Fill in: log10 of IC50 of CCOC(=O)N[C@H](C(=O)Nc1ccc2c(c1)CC(C(=O)NC)(N1C[C@@H](C(C)C)NC1=O)C2)C1CCCCC1 (stereo partly shown) [Example 50] is ___
[out] 3.20

[in] Field request: log10 of IC50 | item: CNC(=O)C1(N2C[C@@H](C(C)C)NC2=O)Cc2ccc(NC(=O)[C@@H](NC(=O)c3ccnn3C)C3CCCC3)cc2C1 (stereo partly shown) [Example 46]
[out] 2.41
